Molecular target: T1, 4H3112-AA
T1 chain: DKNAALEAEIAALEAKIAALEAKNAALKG
Assay: two-hybrid library CCmax;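 further: natural log of median RNA to DNA barcode read ratio; higher means stronger binding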
Details: mean of both orientations
Reported Property: interaction score
Give bare numbers.

INSERT INTO assay_data (binder, recorded_measurement) VALUES
  ('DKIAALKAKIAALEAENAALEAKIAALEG [4H2837-AA]', 1.23),
  ('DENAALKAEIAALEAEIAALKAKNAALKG [4H1552-AA]', -0.246),
  ('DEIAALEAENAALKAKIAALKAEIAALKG [4H234-AA]', -1.22),
  ('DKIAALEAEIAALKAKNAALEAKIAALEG [4H2165-AA]', -0.868);

// next entry
I would be grateful if you could share the reported interaction score for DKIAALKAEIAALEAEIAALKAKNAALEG [4H2575-AA] .
-0.383

Cited source for all entries: paper PMC10397247
